Test system: KRas-mediated phosphorylation of ERK in H727 cells
Assay: Inhibition of KRas-mediated phosphorylation of ERK (Cisbio HTRF pERK), H727 cells
Format: cell-based
Settings: Homo sapiens, NCI-H727, 3 h, single point, 100 nM compound, 3 hrs, H727 cells
Would you mind labelling by inhibition at 0.1 µM? At or over 10% is yes, under is no.

Solved entries:
>>> df
                                   compound  group
0  CCc1c(F)ccc2cc(O)cc(-c3ncc4c(N5CCC[C@@](C)(O)C5)nc(OC[C@]56CCCN5[C@H](CNS(=O)(=O)N(C)C)CC6)nc4c3F)c12    yes
1  CCNC(=O)c1cc2n(n1)CCCCN(c1nc(OC[C@@]34CCCN3C[C@H](F)C4)nc3c(F)c(-c4cc(O)cc5ccc(F)c(CC)c45)ncc13)C2    yes
2  Cc1cc2[nH]c(=O)[nH]c2c(-c2ncc3c(N4CCC[C@@](C)(O)C4)nc(OCC45CCCN4CCC5)nc3c2F)c1C     no
3  Oc1cc2ccccc2c(-c2ncc3c(N4C[C@@H]5C[C@H](C4)[C@H](O)C5)nc(OC[C@@]45CCCN4C[C@H](F)C5)nc3c2F)c1Cl     no
4  Cc1c(O)cc(-c2ncc3c(N4C[C@@H]5C[C@H](C4)[C@H](O)C5)nc(OC[C@@]45CCCN4C[C@H](F)C5)nc3c2F)c2ccccc12    yes
5  CCc1c(F)ccc2cc(O)cc(-c3ncc4c(N5CCC[C@@](C)(O)C5)nc(OCC5(CN(C)C)CC56CC6)nc4c3F)c12 (stereo partly drawn)    yes
6  Oc1cc2ccccc2c(-c2ncc3c(N4C[C@@H]5C[C@H](C4)[C@H](O)C5)nc(OC[C@@]45CCCN4C[C@H](F)C5)nc3c2F)c1F     no
7  O=C1NC(=O)[C@]2(CCCN(c3nc(OC[C@@]45CCCN4C[C@H](F)C5)nc4c(F)c(-c5c(C6CC6)c(Cl)cc6[nH]ncc56)ncc34)C2)N1    yes

Asked: API: above_or_equal(metric=inhibition at 0.1 µM, cutoff=10%) for item CCc1c(F)ccc2cc(O)cc(-c3ncc4c(N5CCC[C@@](C)(O)C5)nc(OC[C@@]56CCCN5[C@@H](CNS(=O)(=O)N(C)C)CC6)nc4c3F)c12
Given back: yes

Asked: Try this compound too: O=S1(=O)CCC2(CCCN(c3nc(OC[C@@]45CCCN4C[C@H](F)C5)nc4c(F)c(-c5cc(O)cc6cccc(Cl)c56)ncc34)C2)N1 (stereo partly drawn)
Given back: yes

Asked: Try this compound too: CCc1c(F)ccc2cc(O)cc(-c3ncc4c(N5Cc6n[nH]c(CO)c6C5)nc(OC[C@@]56CCCN5C[C@H](F)C6)nc4c3F)c12
Given back: no

Asked: Try this compound too: C#Cc1c(F)ccc2cc(O)cc(-c3ncc4c(N5CCC[C@@](C)(O)C5)nc(OCC5(CN6CCCC6)CC5)nc4c3F)c12
Given back: yes
